test_description: amyloid nucleation score (Sup35N fusion, yeast selection) (log enrichment); library NNK1; higher = more nucleation; inactive = no reads after selection;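 note: zero at mode of non-aggregating sequences after 7 days selection at 30°C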

{"substance": "NSEMCWFFNMISSTLAHLLV", "amyloid nucleation score": 1.75}
{"substance": "IYRFQWPWDMLMYCWTLMSV", "amyloid nucleation score": -0.776}
{"substance": "RVLVDPRSSFVYSTRFDDD", "amyloid nucleation score": 0.2}
{"substance": "DNMSVLYDTTLVFRWIWVEP", "amyloid nucleation score": "inactive"}
{"substance": "NFKQGNSYVCNSCLGCGVSR", "amyloid nucleation score": 6.45}
{"substance": "GRGKPMTLASKFIAGRFVF", "amyloid nucleation score": 0.521}
{"substance": "HMSGFWM", "amyloid nucleation score": -0.856}
{"substance": "VVTRDQLYQ", "amyloid nucleation score": -0.817}
{"substance": "SFKRYRRYRSKRVRRIGRGR", "amyloid nucleation score": 0.677}
{"substance": "ARFVDYPCALLWARTSR", "amyloid nucleation score": -0.375}
{"substance": "ASSVSMFFYIWFLDAHVGYL", "amyloid nucleation score": 0.364}
{"substance": "LMNCVAYAIVEVTCVSCMES", "amyloid nucleation score": 4.68}
{"substance": "MLSVRTGISGLQSVRTKALA", "amyloid nucleation score": -0.33}
{"substance": "TCVCQFIWG", "amyloid nucleation score": -0.086}
{"substance": "FNNPKCHSWLDRMVWLMWLA", "amyloid nucleation score": 0.343}
{"substance": "FAYFSVNCL", "amyloid nucleation score": "inactive"}
{"substance": "MMGNNQRSPYDMDREASITF", "amyloid nucleation score": 0.64}

----------
test_description: amyloid nucleation score (Sup35N fusion, yeast selection) (log enrichment); library NNK3; higher = more nucleation; inactive = no reads after selection

{"substance": "HQKALTAVMWFNNRRGGLFG", "amyloid nucleation score": "inactive"}
{"substance": "VCPVERSY", "amyloid nucleation score": "inactive"}
{"substance": "TLNIRCRRFVFVWDATNSV", "amyloid nucleation score": 2.88}
{"substance": "RCLEERH", "amyloid nucleation score": "inactive"}
{"substance": "GVKVSDMSPDRDNLWFSRCS", "amyloid nucleation score": "inactive"}
{"substance": "SDPVPVMDIALYLVNPQLPS", "amyloid nucleation score": "inactive"}
{"substance": "FCHVRMLAISTIYGSSVEVF", "amyloid nucleation score": "inactive"}
{"substance": "DLHLLYKYILFAKLLV", "amyloid nucleation score": "inactive"}
{"substance": "GGTLFLYGLIHQHWFLRMHE", "amyloid nucleation score": 1.05}

----------
test_description: amyloid nucleation score (Sup35N fusion, yeast selection) (log enrichment); library NNK3; higher = more nucleation; inactive = no reads after selection
endpoint_name: amyloid nucleation score

{"substance": "SFRSSSYEDNCLLVVDNVRT", "result": "inactive"}
{"substance": "SVDEVRCTCVYSCGVWPGGC", "result": "inactive"}
{"substance": "GTPALCQ", "result": "inactive"}
{"substance": "FFSAPMNEVKTGTILKGFVC", "result": "inactive"}
{"substance": "GCFYIFRIY", "result": -0.222}
{"substance": "NTGCSDNFESFCLKATVHWV", "result": "inactive"}
{"substance": "ALSVSSLALANDDVTG", "result": "inactive"}
{"substance": "YCFSWNHR", "result": 0.116}
{"substance": "GPSLYINLMRVGCRRGHLFL", "result": 1.46}
